# Procedure details: In vivo pharmacokinetics in rats
# Parameters: species or system Sprague-Dawley rats
# Condition description: rat, plasma; male Sprague-Dawley rats, 1 mg/kg IV, 2 hr; read-out: Mean (ng/mL) after 1 mg/kg IV dose
Parameter measured: concentration at 2 h (ng/mL)
Form entry: value (ng/mL) — number only.

IN: What concentration at 2 h value was documented for this molecule, C[C@@H](NC(=O)Cc1ccc(C(F)(F)F)cc1)c1cc2cnn(CC(F)(F)F)c2cn1 ?
OUT: 423

----------
# Procedure details: In vivo pharmacokinetics in rats
# Set-up: species or system Sprague-Dawley rats
# Condition description: rat, plasma; male Sprague-Dawley rats, 10 mg/kg PO, 4 hr; read-out: Mean (ng/mL) after 10 mg/kg PO dose
Parameter measured: concentration at 4 h (ng/mL)
Form entry: value (ng/mL) — number only.

IN: What concentration at 4 h value was documented for this compound, C[C@@H](NC(=O)Cc1ccc(C(F)(F)F)cc1)c1cc2cnn(CC(F)(F)F)c2cn1 ?
OUT: 4070

----------
# Procedure details: Brain penetration in mice
# Assay type: in vivo
# Condition description: mouse, brain; male C57BL/6 mice, 1 mg/kg IV, 4 hours post-dose
Parameter measured: concentration at 4 h

IN: What concentration at 4 h value was documented for this compound, C[C@@H](NC(=O)Cc1ccc(C(F)(F)F)cc1)c1cc2cnn(CC(F)(F)F)c2cn1 ?
OUT: > 100 ng/mL

----------
# Target entity: Cav3.2 (Homo sapiens (Human))
# Procedure details: In vitro patch clamp assay (SyncroPatch 384PE)
# Condition description: HEK293 cells
# Description: Patch clamp assays were performed at Charles River. HEK293 cells were cultured in Dulbecco's Modified Eagle Medium/Nutrient Mixture F-12 (D-MEM/F-12) supplemented with 10% fetal bovine serum, 100 U/mL penicillin G sodium, 100 μg/mL streptomycin sulfate and 500 μg/mL G418. […] After establishment of the whole-cell configuration, membrane currents were recorded using patch clamp amplifier in the SP384PE system.
Parameter measured: pIC50
// pIC50: -log10(molar conc.)

> print(dat)
                                   molecule                  target.entity  observed.value
1  C[C@@H](NC(=O)Cc1ccc2c(c1)OC(F)(F)O2)c1cc2cnn(CC(F)(F)F)c2cn1 [Example 48]  Cav3.2 (Homo sapiens (Human))            6.59

Now for the molecule whose pIC50 we want.
IN: What pIC50 value was documented for this molecule, C[C@@H](NC(=O)Cc1cnc(C2CC2)c(F)c1)c1cc2cnn(CC(F)(F)F)c2cn1 [Example 39] ?
OUT: 6.28

----------
# Procedure details: In vivo pharmacokinetics in rats
# Parameters: species or system Sprague-Dawley rats
# Condition description: rat, plasma; male Sprague-Dawley rats, 10 mg/kg PO, 12 hr; read-out: Mean (ng/mL) after 10 mg/kg PO dose
Parameter measured: concentration at 12 h (ng/mL)
Form entry: value (ng/mL) — number only.

IN: What concentration at 12 h value was documented for this molecule, C[C@@H](NC(=O)Cc1ccc(C(F)(F)F)cc1)c1cc2cnn(CC(F)(F)F)c2cn1 ?
OUT: 329

----------
# Procedure details: In vivo pharmacokinetics in rats
# Parameters: species or system Sprague-Dawley rats
# Condition description: rat, plasma; male Sprague-Dawley rats, 1 mg/kg IV, 4 hr; read-out: Mean (ng/mL) after 1 mg/kg IV dose
Parameter measured: concentration at 4 h (ng/mL)
Form entry: value (ng/mL) — number only.

IN: What concentration at 4 h value was documented for this molecule, C[C@@H](NC(=O)Cc1ccc(C(F)(F)F)cc1)c1cc2cnn(CC(F)(F)F)c2cn1 ?
OUT: 193

----------
# Target entity: Cav3.2 (Homo sapiens (Human), UniProt O95180)
# Sequence (O95180 whole entry): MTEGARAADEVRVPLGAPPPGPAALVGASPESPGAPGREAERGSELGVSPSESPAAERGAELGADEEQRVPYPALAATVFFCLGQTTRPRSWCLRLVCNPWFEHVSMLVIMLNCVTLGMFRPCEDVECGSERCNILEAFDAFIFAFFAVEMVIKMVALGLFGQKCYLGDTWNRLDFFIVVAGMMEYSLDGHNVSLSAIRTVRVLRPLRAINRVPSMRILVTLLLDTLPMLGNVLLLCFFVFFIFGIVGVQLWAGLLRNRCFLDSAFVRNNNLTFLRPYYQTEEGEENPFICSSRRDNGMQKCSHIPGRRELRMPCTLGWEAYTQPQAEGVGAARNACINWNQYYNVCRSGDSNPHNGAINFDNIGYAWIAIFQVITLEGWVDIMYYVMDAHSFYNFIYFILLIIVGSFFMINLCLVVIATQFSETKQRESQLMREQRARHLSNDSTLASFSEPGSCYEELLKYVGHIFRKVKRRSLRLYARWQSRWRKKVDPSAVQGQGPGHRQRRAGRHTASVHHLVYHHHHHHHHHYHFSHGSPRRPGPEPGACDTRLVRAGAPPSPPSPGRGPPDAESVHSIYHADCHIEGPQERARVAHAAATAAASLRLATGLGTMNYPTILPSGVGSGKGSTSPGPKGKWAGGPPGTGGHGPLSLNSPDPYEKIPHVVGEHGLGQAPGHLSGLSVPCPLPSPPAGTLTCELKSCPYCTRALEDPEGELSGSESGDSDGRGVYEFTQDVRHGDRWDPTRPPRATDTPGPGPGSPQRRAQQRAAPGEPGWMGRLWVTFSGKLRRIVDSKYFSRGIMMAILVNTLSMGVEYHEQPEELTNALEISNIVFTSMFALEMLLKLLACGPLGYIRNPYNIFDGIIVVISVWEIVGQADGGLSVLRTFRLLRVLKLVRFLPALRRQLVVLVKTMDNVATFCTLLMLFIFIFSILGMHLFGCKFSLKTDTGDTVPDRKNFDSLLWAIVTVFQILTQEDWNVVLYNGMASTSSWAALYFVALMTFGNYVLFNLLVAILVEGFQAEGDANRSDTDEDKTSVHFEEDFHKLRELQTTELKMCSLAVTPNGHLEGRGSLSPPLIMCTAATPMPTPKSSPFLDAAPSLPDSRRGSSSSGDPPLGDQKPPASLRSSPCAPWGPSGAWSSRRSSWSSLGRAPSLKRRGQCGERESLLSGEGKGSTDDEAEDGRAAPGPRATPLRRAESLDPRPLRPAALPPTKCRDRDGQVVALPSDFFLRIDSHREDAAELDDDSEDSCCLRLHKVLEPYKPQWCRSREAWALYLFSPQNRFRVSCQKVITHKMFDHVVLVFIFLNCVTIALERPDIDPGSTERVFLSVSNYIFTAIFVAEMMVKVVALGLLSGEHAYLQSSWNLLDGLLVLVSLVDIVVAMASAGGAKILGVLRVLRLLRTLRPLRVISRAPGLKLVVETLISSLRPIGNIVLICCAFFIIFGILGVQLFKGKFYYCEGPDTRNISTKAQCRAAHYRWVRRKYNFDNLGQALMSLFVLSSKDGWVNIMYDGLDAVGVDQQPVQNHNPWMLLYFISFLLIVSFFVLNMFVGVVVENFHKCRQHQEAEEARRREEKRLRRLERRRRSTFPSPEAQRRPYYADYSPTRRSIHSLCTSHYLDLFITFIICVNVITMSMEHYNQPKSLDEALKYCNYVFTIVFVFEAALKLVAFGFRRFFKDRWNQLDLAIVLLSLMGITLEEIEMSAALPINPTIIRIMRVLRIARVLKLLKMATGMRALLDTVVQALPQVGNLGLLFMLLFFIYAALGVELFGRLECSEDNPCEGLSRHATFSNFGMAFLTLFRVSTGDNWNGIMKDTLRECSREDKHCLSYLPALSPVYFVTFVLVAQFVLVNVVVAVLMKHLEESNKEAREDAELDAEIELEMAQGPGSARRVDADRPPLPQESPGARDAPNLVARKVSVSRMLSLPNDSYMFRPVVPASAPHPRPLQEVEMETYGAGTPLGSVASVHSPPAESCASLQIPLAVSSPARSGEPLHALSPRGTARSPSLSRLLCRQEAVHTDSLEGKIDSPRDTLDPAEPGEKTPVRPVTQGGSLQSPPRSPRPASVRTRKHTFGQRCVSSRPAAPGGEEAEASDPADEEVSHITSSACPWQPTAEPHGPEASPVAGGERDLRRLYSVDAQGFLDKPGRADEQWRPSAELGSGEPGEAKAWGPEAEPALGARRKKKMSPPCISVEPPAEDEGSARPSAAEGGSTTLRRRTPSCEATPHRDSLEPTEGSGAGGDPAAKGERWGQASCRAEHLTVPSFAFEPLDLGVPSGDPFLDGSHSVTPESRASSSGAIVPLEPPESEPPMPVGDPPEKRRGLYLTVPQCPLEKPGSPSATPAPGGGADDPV
# Procedure details: In vitro patch clamp assay (SyncroPatch 384PE)
# Condition description: HEK293 cells
Parameter measured: pIC50
// pIC50: -log10(molar conc.)

> print(dat)
                                   molecule  observed.value
1  C[C@@H](NC(=O)Cc1ccc(C(C)(F)F)cc1)c1cc2cnn(CC(F)(F)F)c2cn1 [Example 19]            6.88
2  Cc1nn(CC(F)(F)F)c2cnc([C@@H](C)NC(=O)Cc3ccc(C4CC4)cc3)cc12 [Example 33]            5.08
3  C[C@@H](NC(=O)Cc1ccc(C2CC2)cc1)c1cc2nnn(CC(F)(F)F)c2cn1 [Example 24]            6.48
4  CC(C)c1ccc(CC(=O)N[C@H](C)c2cc3cnn(C)c3nn2)cc1 [Example 13]            6.15
5  C[C@@H](NC(=O)Cc1ccc2c(c1)c(C#N)cn2C)c1cc2cnn(CC(F)(F)F)c2cn1 [Example 50]            6.07
6  C[C@@H](NC(=O)Cc1ccc(C2CC2)cc1)c1cc2cnn(CC(F)(F)F)c2cn1 [Example 28]            7.05

IN: What pIC50 value was documented for this molecule, C[C@@H](NC(=O)Cc1ccc(C2CC2)cc1)c1cc2cnn(-c3ccc(F)cc3)c2cn1 [Example 27] ?
OUT: 6.06

IN: What do you have for Cc1nn(C)c2ccc(CC(=O)N[C@H](C)c3cc4cnn(CC(F)(F)F)c4cn3)cc12 [Example 49] ?
OUT: 6.45

----------
# Procedure details: In vivo pharmacokinetics in dogs
# Condition description: dog, plasma; male beagle dogs, 1 mg/kg IV and 3 mg/kg PO; read-out: oral bioavailability (F)
Parameter measured: bioavailability

IN: What bioavailability value was documented for this compound, C[C@@H](NC(=O)Cc1ccc(C(F)(F)F)cc1)c1cc2cnn(CC(F)(F)F)c2cn1 [Example 15] ?
OUT: > 50%

----------
# Procedure details: In vivo pharmacokinetics in rats
# Parameters: species or system Sprague-Dawley rats
# Condition description: rat, plasma; male Sprague-Dawley rats, 10 mg/kg PO, 8 hr; read-out: Mean (ng/mL) after 10 mg/kg PO dose
Parameter measured: concentration at 8 h (ng/mL)
Form entry: value (ng/mL) — number only.

IN: What concentration at 8 h value was documented for this molecule, C[C@@H](NC(=O)Cc1ccc(C(F)(F)F)cc1)c1cc2cnn(CC(F)(F)F)c2cn1 ?
OUT: 1240

----------
# Target entity: Cav3.2 (Homo sapiens (Human))
# Procedure details: In vitro patch clamp assay (SyncroPatch 384PE)
# Condition description: HEK293 cells
Listing of recorded pIC50 by entry.
// pIC50: -log10(molar conc.)

Sample records with pIC50:
> print(dat)
                                   compound  parameter.measured  observed.value
1  Cc1c(C#N)c2cc(CC(=O)N[C@H](C)c3cc4cnn(CC(F)(F)F)c4cn3)ccc2n1C [Example 54]               pIC50            6.28
2  C[C@@H](NC(=O)Cc1ccc(C(F)(F)F)cc1)c1cc2cnn(CC(F)(F)F)c2cn1 [Example 15]               pIC50            6.79

IN: What pIC50 value was documented for this compound, CC[C@@H](NC(=O)Cc1ccc(C(F)(F)F)cc1)c1cc2cnn(CC(F)(F)F)c2cn1 [Example 45] ?
OUT: 6.95

IN: What do you have for CC(C)c1ccc(CC(=O)N[C@H](C)c2cc3cnn(CC(C)(F)F)c3cn2)cc1 [Example 14] ?
OUT: 7.07

IN: What do you have for C[C@@H](NC(=O)Cc1ccc(C2(C(F)(F)F)CC2)nc1)c1ccc(OCC(F)(F)F)cn1 [Example 59] ?
OUT: 7.01

IN: What do you have for CC(C)c1ccc(CC(=O)N[C@H](C)c2cc3cnn(CC(F)(F)F)c3cn2)cc1 [Example 9] ?
OUT: 7.36

----------
Listing of recorded pIC50 by entry.
# Target entity: Cav3.2 (Homo sapiens (Human), UniProt O95180)
# Procedure details: In vitro patch clamp assay (SyncroPatch 384PE)
# Condition description: HEK293 cells
// pIC50: -log10(molar conc.)

Sample records with pIC50:
> print(dat)
                                   compound  observed.value
1  Cc1noc2cnc([C@@H](C)NC(=O)Cc3ccc(C(C)C)cc3)cc12            5.11
2  CC(C)c1ccc(CC(=O)N[C@H](C)c2cc3c(cn2)OC(F)(F)O3)cc1            6.06
3  CC(C)c1ccc(CC(=O)N[C@H](C)c2cc3cn(C)nc3cn2)cc1            5.19
4  C[C@@H](NC(=O)Cc1cnc(C2CC2)c(Cl)c1)c1cc2cnn(CC(F)(F)F)c2cn1            6.06
5  CC(C)c1ccc(CC(=O)N[C@H](C)c2cc3cnn(CC(F)(F)F)c3cn2)cn1            5.98
6  C[C@@H](NC(=O)Cc1cnc(C(C)(F)F)c(Cl)c1)c1cc2cnn(CC(F)(F)F)c2cn1            5.67
7  C[C@@H](NC(=O)Cc1ccc(C2CC2(F)F)cc1)c1cc2cnn(CC(F)(F)F)c2cn1 (single isomer, unassigned) [Example 31]            6.30

Now for the compound whose pIC50 we want.
IN: What pIC50 value was documented for this compound, C[C@@H](NC(=O)Cc1ccc(C2CC2)nc1)c1cc2cnn(CC(F)(F)F)c2cn1 ?
OUT: 5.59
